Consider the following variants and their measured self-cleavage readings.
B1: HDV Ribozyme (parent)
chain: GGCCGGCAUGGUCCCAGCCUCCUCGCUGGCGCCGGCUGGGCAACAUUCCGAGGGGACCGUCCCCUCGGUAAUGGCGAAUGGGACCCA

# Variants of: B1
# procedureText: self-cleavage, relative activity (ratio to wild type); higher = more cleavage; co-transcriptional
Give a plain numeric answer without units written out.

- mutantDesignation: "G35U C41G"
  recordedMeasurement: 0.188

Please look up its self-cleavage: G10C C49G 0.453

Please look up its self-cleavage: G25C G80U 0.126

Please look up its self-cleavage: C7U G11A 0.423

Please look up its self-cleavage: G28U 0.108

Please look up its self-cleavage: C3U G54U 0.732

Please look up its self-cleavage: G40A G74U 0.732

Please look up its self-cleavage: U23G G34U 0.0959

Please look up its self-cleavage: A51U C57G 1.04

Please look up its self-cleavage: G76A A77G 1.04

Please look up its self-cleavage: G11A A77C 0.0898

Please look up its self-cleavage: U20G C41A 0.145

Please look up its self-cleavage: C3U C58U 0.696

Please look up its self-cleavage: A56C A83G 1.01

Please look up its self-cleavage: G29A G73C 0.0639

Please look up its self-cleavage: U23C G35C 0.115

Please look up its self-cleavage: U9G U46C 0.748

Please look up its self-cleavage: C21A A70G 0

Please look up its self-cleavage: G29U A83U 0.102

Please look up its self-cleavage: A45C A87C 0.554

Please look up its self-cleavage: G81C G82C 0.106

Please look up its self-cleavage: G1U C66G 0.211
